B1: Far upstream element-binding protein 1, residues 184 to 257; numbered along this chain, Q96AE4 (parent)
chain: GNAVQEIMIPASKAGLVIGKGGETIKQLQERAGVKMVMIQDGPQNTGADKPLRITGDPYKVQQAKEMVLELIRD

- Variants of: B1
- Protocol: abundance fitness (aPCA) (normalised: wild type 0, dead -1); higher = more abundant; growth selection in yeast, the domain comes from the species named
- Condition notes: Homo sapiens
Listing: abundance fitness of selected variants

Worked examples follow.
>  <Mutation name>
R73H

>  <abundance fitness>
0.031

$$$$
>  <Mutation name>
Q27M

>  <abundance fitness>
-0.008

$$$$
>  <Mutation name>
G47P

>  <abundance fitness>
-0.108

$$$$
>  <Mutation name>
A14M

>  <abundance fitness>
0.033

$$$$
>  <Mutation name>
Q29Y

>  <abundance fitness>
-0.67

$$$$

With those in mind, consider the next variant.
Incoming: Respond only with abundance fitness recorded for `G22L`
Outgoing: -0.157
